Items are presented alongside their recorded Blackgrass plant response rating (0 to 100 scale).
Tested on: blackgrass (Alopecurus myosuroides)
Assay: Test A postemergence, visual plant response rating
Format: in vivo
Conditions: 500 g ai/ha, postemergence; 0 is no effect, 100 is complete control
Reply with the value as a number alone.

# example entries with known answers
[
  {
    "compound": "CON=C(c1c(O)c(C)nn(C)c1=O)c1cccc2cc(Br)ccc12 [Compound 100]",
    "experimental result": 90
  },
  {
    "compound": "CON=C(c1ccc(F)cc1C)c1c(O)c(C)nn(C)c1=O",
    "experimental result": 0
  },
  {
    "compound": "CO/N=C(\\c1c(O)c(Cl)nn(C)c1=O)c1cccc2ccccc12",
    "experimental result": 70
  },
  {
    "compound": "CON=C(c1c(OC(C)=O)c(C)nn(C)c1=O)c1cccc2ccccc12",
    "experimental result": 90
  },
  {
    "compound": "CCO/N=C(/c1c(O)c(C)nn(C)c1=O)c1ccc(F)c2ccccc12",
    "experimental result": 100
  }
]

# query: Blackgrass plant response rating (0 to 100 scale) | item CON=C(c1c(O)c(C)nn(C)c1=O)c1ccc(Cl)c2ccccc12 | system: blackgrass (Alopecurus myosuroides)
70
